System: SEM cells
runDescription: cell viability relative to DMSO control; higher = less cytotoxic
condition: HPLM + 10% dialyzed FBS; 48 h; 0.00234 µM
Below is a list of entries, each paired with its recorded cell viability value.
Lab book: enter the figure in %, no units written.

Example compounds with recorded cell viability:
compound	cell viability (%)
C[C@]12C[C@H](O)[C@H]3[C@@H](CC\C4=C\C(=O)\C=C/[C@]34C)[C@@H]1CC[C@]2(O)C(=O)CO	112
O=c1c(-c2ccc(O)cc2)coc2cc(O[C@@H]3O[C@H](CO)[C@@H](O)[C@H](O)[C@H]3O)ccc12	115
NC(=O)c1cnc(N[C@@H]2CCCC[C@@H]2N)nc1Nc1cccc(-n2nccn2)c1	103

Shifting focus to the compound that follows.
For SEM cells, give the measured cell viability of the entry CC/1=C/C(=O)N(O)/C(=C1)C2CCCCC2
89.7

---

Test system: SEM cells
runDescription: cell viability relative to DMSO control; higher = less cytotoxic
condition: RPMI 5 mM glucose + 10% dialyzed FBS; 48 h; 5.12 µM
endpointLabel: cell viability (%)
Lab book: enter the figure in %, no units written.

molecule	endpointUnit	cell viability
CC\1=C(C(\N=C(/N1)C2=CC(=NC=C2)Cl)C3=C(F)C=C(Cl)C=C3)/C(=O)NC4=C(F)C=C5[NH]N=CC5=C4 (stereo unspecified)	%	81.3

For SEM cells, give the measured cell viability of the entry OC[C@H]1O[C@@H](O[C@@H]2[C@@H](CO)O[C@](O)(CO)[C@H]2O)[C@H](O)[C@@H](O)[C@H]1O
82.8

For SEM cells, give the measured cell viability of the entry C/C=C/C[C@@H](C)C(=O)[C@H]1C(=O)N[C@@H](C(C)C)C(=O)N(C)CC(=O)N(C)[C@@H](CC(C)C)C(=O)N[C@@H](C(C)C)C(=O)N(C)[C@@H](CC(C)C)C(=O)N[C@@H](C)C(=O)N[C@H](C)C(=O)N(C)[C@@H](CC(C)C)C(=O)N(C)[C@@H](CC(C)C)C(=O)N(C)[C@@H](C(C)C)C(=O)N1C
108

For SEM cells, give the measured cell viability of the entry C#Cc1cccc(Nc2ncnc3cc(OCCOC)c(OCCOC)cc23)c1
59.7

For SEM cells, give the measured cell viability of the entry O=C([O-])C(O)Cc1ccc(O)c(O)c1 (stereo unspecified)
60.4

For SEM cells, give the measured cell viability of the entry CCc1cncnc1N1CCN(Cc2nc3cc(C(F)(F)F)ccc3[nH]2)CC1
84.4

For SEM cells, give the measured cell viability of the entry Cc1nc(NC(=O)N2CCC[C@H]2C(N)=O)sc1-c1ccnc(C(C)(C)C(F)(F)F)c1
62.2

For SEM cells, give the measured cell viability of the entry C[C@](O)(COc1ccc(C#N)cc1)C(=O)Nc1ccc(C#N)c(C(F)(F)F)c1
91

For SEM cells, give the measured cell viability of the entry Cc1ccccc1C(C(=O)NC1CCCCC1)N(C(=O)Cn1ccnc1C)c1cccc(F)c1 (stereo unspecified)
97.4

---

Test system: NOMO1
runDescription: cell viability relative to DMSO control; higher = less cytotoxic
condition: RPMI 5 mM glucose + 10% dialyzed FBS; 48 h; 5.12 µM
Kindly apply the following: Yes if cell viability is less than 90%, No in every other case.

molecule	classAssignment
CC1(C)CC(=O)c2c(C(F)(F)F)nn(-c3ccc(C(N)=O)c(NC4CCC(O)CC4)c3)c2C1 (centres undefined)	Yes
CN(c1ncccc1CNc1nc(Nc2ccc3c(c2)CC(=O)N3)ncc1C(F)(F)F)[S+](C)(=O)[O-]	No
OC1=CC=C(C=C1)\C2=C\OC3=C(C=CC(=C3)O)C2=O	No
COC1=NC(=NC(=C1N\C2=N\CCN2)Cl)C	Yes
Cn1c(=O)c2c(ncn2C)n(C)c1=O.O=C(O)CC(O)(CC(=O)O)C(=O)O	No

Consider the molecule CCCCn1c(=O)n(Cc2ccccc2F)c(=O)c2nc(Cc3ccc(NC(C)=O)cc3)[nH]c21 . Is its cell viability strictly less than 90%?
Yes

Consider the molecule O=NN(CCCl)C(=O)NC1CCCCC1 . Is its cell viability strictly less than 90%?
No

Consider the molecule C[C@](O)(COc1ccc(C#N)cc1)C(=O)Nc1ccc(C#N)c(C(F)(F)F)c1 . Is its cell viability strictly less than 90%?
Yes
